# Target or system: Procathepsin L (Homo sapiens)
# Protocol summary: Percent inhibition of human liver cathepsin L at 0.2 uM
Square brackets hold non-standard residues; d marks the D form. Peptide text beside a SMILES is read from it. * marks the point of attachment. ξ: configuration not given here. ξF = NC(Cc1ccccc1)C(=O)O; Cbz = O=C(OCc1ccccc1)*
Dear colleague, classification is by inhibition, with ranges listed here: group 1 (below 7%), group 2 (7% to below 20%), group 3 (20% or more)

Example results:
Molecule: CC(C)[C@H](NC(=O)OCc1ccccc1)C(=O)NC(C=O)Cc1ccccc1 (stereo partly drawn) (Cbz-Val-[ξF]-aldehyde)
Label class: group 3
--
Molecule: Cc1c(C(=O)N[C@@H](Cc2ccccc2)C(=O)C(=O)NCc2ccccc2)oc2cc3c(cc2c1=O)OCCO3
Label class: group 2
--
Molecule: NC(=O)C(=O)[C@H](Cc1ccccc1)NC(=O)c1cc(=O)c2ccccc2o1
Label class: group 3
--
Molecule: Cc1c(C(=O)N[C@@H](Cc2ccccc2)C(=O)C(=O)NC(C)C)oc2ccccc2c1=O
Label class: group 1
--
Molecule: Cc1c(C(=O)N[C@@H](Cc2ccccc2)C(=O)C(N)=O)oc2cc3c(cc2c1=O)OCCO3
Label class: group 3
--
Molecule: CCc1c(C(=O)N[C@@H](Cc2ccccc2)C(=O)C(N)=O)oc2ccccc2c1=O
Label class: group 3
--
Molecule: Cc1c(C(=O)N[C@@H](Cc2ccccc2)C(=O)C(=O)NC(C)C)oc2cc3c(cc2c1=O)OCCO3
Label class: group 1
--
Molecule: Cc1c(C(=O)N[C@@H](Cc2ccccc2)C(=O)C(=O)NCCc2ccccc2)oc2ccccc2c1=O
Label class: group 2
--
Molecule: Cc1c(C(=O)N[C@@H](Cc2ccccc2)C(=O)C(=O)NCc2ccccc2)oc2ccccc2c1=O
Label class: group 2
--
Molecule: Cc1c(C(=O)N[C@@H](Cc2ccccc2)C(=O)C(N)=O)oc2ccccc2c1=O
Label class: group 3

Q: Input Cc1c(C(=O)N[C@@H](Cc2ccccc2)C(=O)C(=O)NCCN2CCOCC2)oc2ccccc2c1=O ; output its category
A: group 1

Q: Input Cc1c(C(=O)N[C@@H](Cc2ccccc2)C(=O)C(=O)NCCc2ccccc2)oc2cc3c(cc2c1=O)OCCO3 ; output its category
A: group 2

Q: Input Cc1c(C(=O)N[C@@H](Cc2ccccc2)C(=O)C(=O)NCCN2CCOCC2)oc2cc3c(cc2c1=O)OCCO3 ; output its category
A: group 1

----------
// values below are reported inhibition
# Target or system: UniProt P07688
# Protocol summary: Percent inhibition of bovine cathepsin B at 2 uM
The figure you give is taken to be in %; do not add the unit.

Recorded inhibition, per entry:
Smiles entry: Cc1c(C(=O)N[C@@H](Cc2ccccc2)C(=O)C(N)=O)oc2ccccc2c1=O
inhibition [%]: 63.2

Smiles entry: Cc1c(C(=O)N[C@@H](Cc2ccccc2)C(=O)C(=O)NCCc2ccccc2)oc2cc3c(cc2c1=O)OCCO3
inhibition [%]: 35.3

Smiles entry: Cc1c(C(=O)N[C@@H](Cc2ccccc2)C(=O)C(=O)NC(C)C)oc2ccccc2c1=O
inhibition [%]: 0

Smiles entry: Cc1c(C(=O)N[C@@H](Cc2ccccc2)C(=O)C(=O)NCc2ccccc2)oc2ccccc2c1=O
inhibition [%]: 21.3

Kindly review the next molecule as well.
Q: Give the reported inhibition for Cc1c(C(=O)N[C@@H](Cc2ccccc2)C(=O)C(=O)NC(C)C)oc2cc3c(cc2c1=O)OCCO3 (system: UniProt P07688).
A: 0
